Target: mouse CD38 (Mus musculus, UniProt P56528)
Sequence (P56528 1-304): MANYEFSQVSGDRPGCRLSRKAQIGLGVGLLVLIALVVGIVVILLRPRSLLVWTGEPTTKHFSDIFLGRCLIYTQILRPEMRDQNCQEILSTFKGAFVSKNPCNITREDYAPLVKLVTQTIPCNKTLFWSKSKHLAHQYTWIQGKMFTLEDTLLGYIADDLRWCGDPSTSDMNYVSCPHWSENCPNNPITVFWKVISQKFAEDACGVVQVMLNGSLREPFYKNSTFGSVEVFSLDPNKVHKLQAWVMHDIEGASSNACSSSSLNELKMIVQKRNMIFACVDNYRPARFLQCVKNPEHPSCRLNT
Assay: mouse recombinant CD38 enzyme assay (hydrolysis of NAD+)
Settings: read-out: mCD38 BioChem IC50
endpoint name: log10 of IC50 (log10 of the value in nM)
Heads up: the numbers are on a log10 scale; they represent IC50 in nM.

Answered cases to consult:
molecule | log10 of IC50
O=C(Nc1ccc(C(F)F)nc1)c1cc(N2CCCC2)cc(-c2cncs2)n1 [Compound 179] | 2.15
Cn1cncc1-c1ccnc(C(=O)N[C@H]2CCN(c3ccccc3)C2)n1 [Compound 246] | 1.79
Cn1cncc1-c1nc(C(=O)Nc2ccc(C(F)F)nc2)cc(C2CCC(F)(F)CC2)n1 [Compound 287] | -0.15

// moving on: another record for log10 of IC50
Please state recorded log10 of IC50 (tested on mouse CD38 (Mus musculus, UniProt P56528)) of O=C(Nc1cccnc1)c1cc(C(F)(F)F)cc(-c2cncs2)n1 [Compound 41]
2.39

---

Target: CYP3A4 (Homo sapiens)
Construct: from tissue; host or cells: human liver microsomes (pooled in the time-dependent assay)
Sequence (P08684 whole entry): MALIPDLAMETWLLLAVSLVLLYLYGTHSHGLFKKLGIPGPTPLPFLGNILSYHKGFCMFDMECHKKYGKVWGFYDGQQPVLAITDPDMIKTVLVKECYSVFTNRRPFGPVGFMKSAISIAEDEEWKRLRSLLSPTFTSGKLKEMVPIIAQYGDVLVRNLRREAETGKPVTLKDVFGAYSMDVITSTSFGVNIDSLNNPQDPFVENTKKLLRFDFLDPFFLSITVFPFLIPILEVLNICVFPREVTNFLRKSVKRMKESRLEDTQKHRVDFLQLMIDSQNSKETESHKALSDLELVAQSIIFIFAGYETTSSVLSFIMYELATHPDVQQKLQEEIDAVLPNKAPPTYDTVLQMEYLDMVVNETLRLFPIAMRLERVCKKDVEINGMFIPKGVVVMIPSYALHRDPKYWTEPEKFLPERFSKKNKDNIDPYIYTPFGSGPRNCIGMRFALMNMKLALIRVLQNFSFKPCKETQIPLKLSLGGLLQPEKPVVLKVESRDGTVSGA
Assay: direct inhibition of CYP450 in human liver microsomes (midazolam and testosterone probes)
Type: in vitro ADME
Details: 10 uM, midazolam probe, read-out: CYP3A4-M T0 % activity
Property: activity at 10 µM; scope: individual compounds
Provide the reading as a plain figure in %.

Known results for compounds:
compound | endpoint name | unit name | reported result
CO[C@H]1CC[C@H](NC(=O)c2nccc(-n3ccnc3)n2)CC1 [Compound 145] | activity at 10 µM | % | 89
Cn1cncc1-c1ccnc(C(=O)Nc2ccc(C(C)(C)O)nc2)n1 [Compound 250] | activity at 10 µM | % | 89
CO[C@H]1CC[C@H](NC(=O)c2cc(C3(C)COC3)nc(-c3cncn3C)n2)CC1 [Compound 295] | activity at 10 µM | % | 93

Next item in the queue.
Give the measured activity at 10 µM of CC(C)(O)c1ccc(NC(=O)c2nccc(-n3ccnc3)n2)cn1 [Compound 249] .
103

---

Molecular target: mouse CD38 (Mus musculus)
Sequence (P56528 1-304): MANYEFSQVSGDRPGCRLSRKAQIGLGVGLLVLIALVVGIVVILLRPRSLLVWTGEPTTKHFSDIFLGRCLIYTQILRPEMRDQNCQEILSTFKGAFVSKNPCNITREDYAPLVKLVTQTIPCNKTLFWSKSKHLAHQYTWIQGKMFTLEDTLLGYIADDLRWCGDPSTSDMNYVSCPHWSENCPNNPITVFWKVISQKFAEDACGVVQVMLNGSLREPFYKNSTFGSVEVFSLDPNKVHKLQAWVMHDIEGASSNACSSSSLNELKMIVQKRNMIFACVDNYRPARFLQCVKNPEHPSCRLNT
Test: mouse recombinant CD38 enzyme assay (hydrolysis of NAD+)
Conditions: read-out: mCD38 BioChem IC50
pIC50: −log10 of the molar value.
Everything with pIC50 lower than 8 is n; everything else, including exactly 8, is y.

Use the examples below as a reference point.
structure notation | qualitative label
O=C(Nc1cccnc1)c1cccc(-c2cncs2)n1 | n
CO[C@H]1CC[C@H](NC(=O)c2nc(-n3ccnc3)ccc2C)CC1 | n
COCCOc1cc(C(=O)Nc2ccc(C(F)(F)F)nc2)nc(-c2cncn2C)n1 | y
COc1cc(C(=O)N[C@H]2CC[C@H](OC)CC2)nc(-c2cncn2C)n1 | y
COc1ccc(NC(=O)c2cc(C3CCOCC3)nc(-c3cncn3C)n2)cn1 | y
Cn1cncc1-c1ncc(F)c(C(=O)N[C@H]2CC[C@H](OC(F)F)CC2)n1 | y

Decide: pIC50 of Cn1cncc1-c1ccnc(C(=O)NC23CC(C(C)(C)O)(C2)C3)n1 >= 8?
n

Test whether the compound Cn1cncc1-c1ccnc(C(=O)N[C@H]2C[C@H](Oc3ccccc3)C2)n1 records pIC50 of 8 or higher.
n

Record O=C(Nc1ccc(C(F)(F)F)nc1)c1cccc(-c2cncs2)n1 ; criterion: pIC50 no lower than 8. Met?
n

Entry COc1cc(C(=O)N[C@H]2CC[C@H](C)CC2)nc(-n2ccnc2)c1 : is its pIC50 no less than 8?
y

Answer whether pIC50 of Cn1cncc1-c1cccc(C(=O)Nc2ccc(C(F)(F)F)nc2)n1 is greater than or equal to 8.
n

// inclusive: pIC50 at least 8? input: O=C(N[C@H]1CC[C@H](O)C1)c1nccc(-n2ccnc2)n1
n
